- system_under_test: long form of human GPR120 (Homo sapiens, UniProt Q5NUL3)
- Sequence (Q5NUL3 1-377 isoform Q5NUL3-1, one chain of several): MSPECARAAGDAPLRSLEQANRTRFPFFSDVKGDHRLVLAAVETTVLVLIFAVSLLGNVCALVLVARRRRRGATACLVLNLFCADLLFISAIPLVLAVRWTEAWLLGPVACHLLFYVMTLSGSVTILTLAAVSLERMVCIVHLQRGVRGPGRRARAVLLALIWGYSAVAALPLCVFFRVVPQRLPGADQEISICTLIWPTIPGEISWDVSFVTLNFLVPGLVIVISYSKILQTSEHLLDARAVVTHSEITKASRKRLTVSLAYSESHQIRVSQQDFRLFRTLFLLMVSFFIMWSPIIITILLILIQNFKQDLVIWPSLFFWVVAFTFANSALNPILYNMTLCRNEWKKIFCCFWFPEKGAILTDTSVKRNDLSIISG
- assay_comment: Human GPR120 DiscoveRx PathHunter Beta-Arrestin assay, Procedure β-arrestin A
Reported values of EC50 for individual entries
Respond with the bare value in nM.

Answered examples (2):
> print(dat)
                        structure.as.smiles  property.measured  recorded.number
1  O=C(O)CCc1ccc(OCC2=C(c3ccc(Cl)cc3)CCC2)cc1OC(F)(F)F               EC50              981
2  Cc1c(CCC(=O)O)ccc(OCC2=C(c3ccc(Cl)cc3)CCCC2)c1C               EC50              354

INPUT: Answer with the recorded EC50 for the compound listed here: `Cc1cc(CCC(=O)O)ccc1OCC1=C(c2ccccc2)CC(F)(F)C1`
OUTPUT: 133

INPUT: Answer with the recorded EC50 for the compound listed here: `COc1ncc(C2=C(COc3c(F)cc(CCC(=O)O)cc3F)CCC2)cc1F`
OUTPUT: 231

INPUT: Answer with the recorded EC50 for the compound listed here: `O=C(O)CCc1cc(F)c(OCC2=C(c3ccc(F)cc3F)CCC(F)(F)C2)c(F)c1`
OUTPUT: 215

----------
- system_under_test: human GPR40 (Homo sapiens, UniProt O14842)
- Sequence (O14842 whole entry): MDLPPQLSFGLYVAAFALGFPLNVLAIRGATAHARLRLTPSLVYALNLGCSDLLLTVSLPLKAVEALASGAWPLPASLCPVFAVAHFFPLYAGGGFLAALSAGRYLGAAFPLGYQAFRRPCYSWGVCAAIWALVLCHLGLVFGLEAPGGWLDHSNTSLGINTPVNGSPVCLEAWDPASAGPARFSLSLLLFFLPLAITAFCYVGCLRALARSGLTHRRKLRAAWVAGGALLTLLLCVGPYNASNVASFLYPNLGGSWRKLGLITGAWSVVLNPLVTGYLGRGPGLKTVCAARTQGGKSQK
- assay_comment: GPR40 calcium flux assay, human GPR40
- recorded_conditions: HEK293 cells stably expressing GPR40; table does not say human or rat
property_measured: EC50

Answered examples (3):
> print(dat)
                        structure.as.smiles  property.measured   result
1  O=C(O)CCc1ccc(OCC2=C(c3ccc(F)cc3)CC(F)(F)C2)cc1               EC50  4.93 µM
2  O=C(O)CCc1cc(F)c(OCC2=C(c3ccc(F)cc3)CC(F)(F)C2)c(F)c1               EC50   > 5 µM
3  Cc1cc(CCC(=O)O)c(C(F)(F)F)cc1OCC1=C(c2ccc(Cl)cc2)CCC1               EC50   > 5 µM

With those in mind, consider the next compound.
INPUT: Answer with the recorded EC50 for the compound listed here: `Cc1cc(CCC(=O)O)ccc1OCC1=C(c2ccc(Cl)cc2)CCC1`
OUTPUT: > 5 µM

----------
- system_under_test: UniProt O14842
- assay_comment: GPR40 calcium flux assay, human GPR40
- recorded_conditions: HEK293 cells stably expressing GPR40; table does not say human or rat
property_measured: EC50 (µM)
Respond with the bare value in µM.

> print(dat)
                                   compound  recorded.number
1  O=C(O)CCc1ccc(OCC2=C(C3CCC3)CCC2)cc1 [Compound 397]            0.418
2  Cc1cccc(CC2=C(COc3ccc(CCC(=O)O)c(C(F)(F)F)c3)CCC2)c1 [Compound 405]            0.205
3  O=C(O)CCc1ccc(OCC2=C(Cc3ccccc3)CCCC2)cc1C(F)(F)F [Compound 584]            0.091
4  COc1ccc(C2=C(COc3cc(C)c(CCC(=O)O)cc3F)CCC2)cc1 [Compound 279]             3.52

INPUT: Answer with the recorded EC50 for the compound listed here: O=C(O)CCc1ccc(OCC2=C(Cc3ccccc3F)CCC2)cc1C(F)(F)F [Compound 404]
OUTPUT: 0.105

----------
- system_under_test: human GPR40 (Homo sapiens, UniProt O14842)
- Construct: expressed in transfected cells
- assay_comment: GPR40 calcium flux assay, human GPR40
- Type: cell-based
- recorded_conditions: HEK293 cells stably expressing GPR40; table does not say human or rat
property_measured: pEC50
Answer as the number alone; pEC50 is minus log10 of concentration in mol/L.

> print(dat)
                                   compound  recorded.number
1  O=C(O)CCc1ccc(OCC2=C(Cc3ccccc3)CCCC2)cc1Cl             7.11
2  Cc1cc(OCC2=C(C3CCC(F)(F)CC3)CCC2)c(F)cc1CCC(=O)O             6.00

INPUT: Fill: pEC50 (human GPR40 (Homo sapiens, UniProt O14842)) for this compound `O=C(O)CCc1ccc(OCC2=C(C3CCCC3)CCC(F)(F)CC2)cc1`
OUTPUT: 6.13

INPUT: Fill: pEC50 (human GPR40 (Homo sapiens, UniProt O14842)) for this compound `O=C(O)CCc1ccc(OCC2=C(C3CCCC3)CCC(F)(F)CC2)cc1F`
OUTPUT: 6.57

INPUT: Fill: pEC50 (human GPR40 (Homo sapiens, UniProt O14842)) for this compound `O=C(O)CCc1ccc(OCC2=C(C3CCC3)CCC2)cc1C(F)(F)F`
OUTPUT: 7.82

INPUT: Fill: pEC50 (human GPR40 (Homo sapiens, UniProt O14842)) for this compound N#CC1CC(COc2c(F)cc(CCC(=O)O)cc2F)=C(c2ccc(Cl)cc2)C1 (stereo not drawn)
OUTPUT: 5.46

----------
Reported values of EC50 for individual entries
- system_under_test: UniProt:O14842
- assay_comment: GPR40 calcium flux assay, human GPR40
- recorded_conditions: HEK293 cells stably expressing GPR40; table does not say human or rat
Respond with the bare value in nM.

Answered examples (4):
> print(dat)
                                   compound  recorded.number
1  O=C(O)CCc1ccc(OCC2=C(Cc3cncs3)CCCC2)cc1Cl [Compound 595]              218
2  C#Cc1cc(OCC2=C(C3CCCC3)CCC2)ccc1CCC(=O)O [Compound 454]              513
3  COc1cc(C2=C(COc3ccc(CCC(=O)O)cc3)CCC2)ccc1C [Compound 261]             1620
4  Cc1cc(OCC2=C(C3CCCC3)CCC2)c(F)cc1CCC(=O)O [Compound 424]              248

INPUT: Answer with the recorded EC50 for the compound listed here: CC1(C)CCC(C2CCCC2)=C(COc2ccc(CCC(=O)O)c(Cl)c2)C1 [Compound 605]
OUTPUT: 852

INPUT: Answer with the recorded EC50 for the compound listed here: CCCC1=C(COc2ccc(CCC(=O)O)c(C(F)(F)F)c2)CCCC1 [Compound 590]
OUTPUT: 316

----------
- system_under_test: long form of human GPR120 (Homo sapiens, UniProt Q5NUL3)
- assay_comment: Human GPR120 DiscoveRx PathHunter Beta-Arrestin assay, Procedure β-arrestin A
property_measured: pEC50
Answer as the number alone; pEC50 is minus log10 of concentration in mol/L.

> print(dat)
                                   molecule  recorded.number
1  Cc1cc(CCC(=O)O)ccc1OCC1=C(c2ccc(F)c(F)c2)CC(F)(F)C1 [Compound 179]             6.54
2  Cc1c(CCC(=O)O)ccc(OCC2=C(c3ccc(F)cc3)CCC(F)(F)C2)c1C [Compound 497]             6.91
3  Cc1c(CCC(=O)O)ccc(OCC2=C(c3ccc(F)c(F)c3)CCC(F)(F)C2)c1C [Compound 531]             6.54
4  Cc1cc(CCC(=O)O)ccc1OCC1=C(c2ccc(F)cc2)CCC(F)(F)C1 [Compound 498]             6.66
5  O=C(O)CCc1cc(F)c(OCC2=C(c3cccs3)CCC(F)(F)C2)c(F)c1 [Compound 559]             6.39

INPUT: Answer with the recorded pEC50 for the molecule listed here: COC1CC(COc2c(F)cc(CCC(=O)O)cc2F)=C(c2ccc(Cl)cc2)C1 (stereo not shown) [Compound 187]
OUTPUT: 6.22

INPUT: Answer with the recorded pEC50 for the molecule listed here: O=C(O)CCc1cc(F)c(OCC2=C(c3cccc(F)c3)CC(F)(F)C2)c(F)c1 [Compound 215]
OUTPUT: 6.55

----------
Reported values of pEC50 for individual entries
- system_under_test: short form of the GPR120 receptor (Homo sapiens, UniProt Q5NUL3)
- Construct: host or cells: PathHunter CHO-K1 GPR120S β-Arrestin Cell Line
- Sequence (Q5NUL3 whole entry): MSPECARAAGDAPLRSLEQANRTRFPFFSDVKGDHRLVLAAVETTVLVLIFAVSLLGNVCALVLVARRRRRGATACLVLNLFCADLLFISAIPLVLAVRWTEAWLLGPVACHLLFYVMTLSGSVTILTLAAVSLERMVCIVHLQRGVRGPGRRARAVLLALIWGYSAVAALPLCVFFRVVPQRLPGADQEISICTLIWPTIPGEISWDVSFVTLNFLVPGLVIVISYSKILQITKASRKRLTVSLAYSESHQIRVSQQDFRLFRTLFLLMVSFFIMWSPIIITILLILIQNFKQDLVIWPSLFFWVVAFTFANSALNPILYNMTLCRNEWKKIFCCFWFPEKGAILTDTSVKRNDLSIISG
- Sequence (P32121 whole entry partner): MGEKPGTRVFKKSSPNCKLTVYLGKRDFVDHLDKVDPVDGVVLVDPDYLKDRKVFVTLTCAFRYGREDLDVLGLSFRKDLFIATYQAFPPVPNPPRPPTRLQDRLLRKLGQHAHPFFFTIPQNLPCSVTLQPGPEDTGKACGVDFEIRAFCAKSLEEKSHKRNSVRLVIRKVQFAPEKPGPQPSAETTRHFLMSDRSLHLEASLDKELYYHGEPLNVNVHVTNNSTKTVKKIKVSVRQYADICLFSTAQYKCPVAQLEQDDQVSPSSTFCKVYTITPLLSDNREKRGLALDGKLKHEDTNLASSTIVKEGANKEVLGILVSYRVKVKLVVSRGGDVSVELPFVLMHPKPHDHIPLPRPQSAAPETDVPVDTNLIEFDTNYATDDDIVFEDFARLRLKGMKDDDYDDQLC
- assay_comment: Human GPR120 DiscoveRx PathHunter Beta-Arrestin assay, Procedure β-arrestin B
- Assay type: cell-based
Answer as the number alone; pEC50 is minus log10 of concentration in mol/L.

> print(dat)
                                   compound  property.measured  recorded.number
1  O=C(O)CCc1ccc(OCC2=C(c3ccc(Cl)cc3)CCCC2)c2c1CCC2              pEC50             6.60
2  Cc1c(CCC(=O)O)ccc(OCC2=C(c3ccccc3)CCCC2)c1C              pEC50             6.31
3  Cc1cc(CCC(=O)O)ccc1OCC1=C(c2ccc(Cl)cc2)CCC1              pEC50             7.12

INPUT: Answer with the recorded pEC50 for the compound listed here: `Cc1c(CCC(=O)O)ccc(OCC2=C(c3ccc(I)cc3)CCC2)c1C`
OUTPUT: 6.59

INPUT: Answer with the recorded pEC50 for the compound listed here: `Cc1c(CCC(=O)O)ccc(OCC2=C(c3ncccn3)CCC2)c1C`
OUTPUT: 6.35

INPUT: Answer with the recorded pEC50 for the compound listed here: `O=C(O)CCc1cc(F)c(OCC2=C(c3ccc(Cl)cc3)CCC2)c(F)c1`
OUTPUT: 6.44

INPUT: Answer with the recorded pEC50 for the compound listed here: `O=C(O)CCc1ccc(OCC2=C(c3ccc(Cl)cc3)CCC2)c(Br)c1`
OUTPUT: 7.33

INPUT: Answer with the recorded pEC50 for the compound listed here: `CSc1ccc(C2=C(COc3ccc(CCC(=O)O)c(C)c3C)CCCC2)cc1`
OUTPUT: 6.14

INPUT: Answer with the recorded pEC50 for the compound listed here: `Cc1c(CCC(=O)O)ccc(OCC2=C(c3ccc(Cl)nc3)CCC2)c1C`
OUTPUT: 6.49

INPUT: Answer with the recorded pEC50 for the compound listed here: `O=C(O)CCc1ccc(OCC2=C(c3ccc(Cl)cc3)CCC2)cc1F`
OUTPUT: 6.56

INPUT: Answer with the recorded pEC50 for the compound listed here: `Cc1c(CCC(=O)O)ccc(OCC2=C(c3cncs3)CCC2)c1C`
OUTPUT: 6.23

INPUT: Answer with the recorded pEC50 for the compound listed here: `Cc1ccc(C2=C(COc3ccc(CCC(=O)O)c(F)c3F)CCC2)cc1N`
OUTPUT: 6.23
